Listing: Population Fragmented Nuclei (%) of selected compounds
System: U2OS
Experiment: Multiplex assay against U2OS
Assay type: toxicity, cell-based
Conditions: human, 48 h, 10 µM, compound concentration 10 uM, replicate 2
Parameter: Population Fragmented Nuclei (%)

>  <Entry Smiles>
CCCSc1nc(N[C@@H]2C[C@H]2c2ccc(F)c(F)c2)c2nnn([C@@H]3C[C@H](OCCO)[C@@H](O)[C@H]3O)c2n1

>  <Recorded Number>
17

$$$$
>  <Entry Smiles>
O=c1cc(N2CCOCC2)oc2c(-c3cccc4c3sc3ccccc34)cccc12

>  <Recorded Number>
22

$$$$
>  <Entry Smiles>
C[C@]12CC[C@@H]3c4ccc(O)cc4CC[C@H]3[C@@H]1CC[C@@H]2O

>  <Recorded Number>
13

$$$$
>  <Entry Smiles>
CC(C)(C)NC[C@H](O)COc1nsnc1N1CCOCC1

>  <Recorded Number>
3

$$$$

====

Test system: U2OS
Experiment: Multiplex assay against U2OS
Assay type: toxicity, cell-based
Settings: human, 48 h, 10 µM, compound concentration 10 uM, replicate 2
Mark t for Population Pyknosed Nuclei (%) under 8%, f if at or over.

>  <Molecule>
C[C@]12CC[C@@H]3c4ccc(O)cc4CC[C@H]3[C@@H]1CC[C@@H]2O

>  <Class>
f

$$$$
>  <Molecule>
Cl.O=C(O)c1cc(-c2ccc(C3CCNCC3)cc2)c2ccc(-c3ccc(C(F)(F)F)cc3)cc2c1

>  <Class>
f

$$$$
>  <Molecule>
CC(C)(C)NC[C@H](O)COc1nsnc1N1CCOCC1

>  <Class>
t

$$$$
>  <Molecule>
CC(C)Oc1ccccc1C(=O)Nc1ccccc1C(=O)Nc1cccc(S(=O)(=O)C(F)(F)F)c1

>  <Class>
f

$$$$
>  <Molecule>
CC(C)OC(=O)N1CCC(Oc2ncnc3c2cnn3-c2ccc(S(C)(=O)=O)cc2F)CC1

>  <Class>
t

$$$$
>  <Molecule>
CC(C)NC(=O)N1CC[C@H](NC2=Nc3cc(F)ccc3N(CC(F)F)c3ccc(Cl)cc32)C1

>  <Class>
f

$$$$
>  <Molecule>
COc1cc2ncn(-c3cc(OCc4ccccc4C(F)(F)F)c(C(N)=O)s3)c2cc1OC [GW843682X]

>  <Class>
f

$$$$
>  <Molecule>
Cc1cccc(CN2CCN(C(c3ccccc3)c3ccc(Cl)cc3)CC2)c1.Cl.Cl (centres undefined)

>  <Class>
f

$$$$

====

In this section, each of the compounds is paired with its reported Growth Rate.
System: HEK-293T
Test: Incucyte cell viability with HEK293T; note: filed as whole numbers so only -1 and 0 and 1 occur
Type: toxicity, cell-based
Conditions: human, 0 h, 10 µM, compound concentration 10 uM, replicate number 2, timepoint 0 hours

>  <Entry Smiles>
O=c1[nH]c2ccccc2n1C1CCN(Cc2ccc(-c3[nH]c4cc5ncnc5cc4nc3-c3ccccc3)cc2)CC1

>  <Target System>
HEK-293T

>  <Growth Rate>
1

$$$$
>  <Entry Smiles>
C=CC(=O)Nc1ccc2[nH]c(=O)n(C3CCN(Cc4ccc(-c5nc6cc[nH]c(=O)c6cc5-c5ccccc5)cc4)CC3)c2c1

>  <Target System>
HEK-293T

>  <Growth Rate>
1

$$$$
>  <Entry Smiles>
S=C=Nc1cccc(NC(=S)NCCCCNC(=S)Nc2cccc(N=C=S)c2)c1

>  <Target System>
HEK-293T

>  <Growth Rate>
0

$$$$
>  <Entry Smiles>
COC(=O)C1=C(C)NC(C)=C(C(=O)OCCCN2CCC(c3ccccc3)(c3ccccc3)CC2)[C@H]1c1cccc([N+](=O)[O-])c1

>  <Target System>
HEK-293T

>  <Growth Rate>
0

$$$$
>  <Entry Smiles>
C[C@]12CC[C@@H]3c4ccc(O)cc4CC[C@H]3[C@@H]1CC[C@@H]2O

>  <Target System>
HEK-293T

>  <Growth Rate>
0

$$$$
>  <Entry Smiles>
Cl.Clc1cccc(COc2cncc(N3CCNCC3)n2)c1

>  <Target System>
HEK-293T

>  <Growth Rate>
1

$$$$

====

Test system: HEK-293T
Test: Incucyte cell viability with HEK293T; note: filed as whole numbers so only -1 and 0 and 1 occur
Format: toxicity, cell-based
Settings: human, 24 h, 10 µM, compound concentration 10 uM, replicate number 1, timepoint 24 hours

>  <Compound>
Cl.Clc1ccc(CCCOCCCN2CCCCC2)cc1 [PITOLISANT HYDROCHLORIDE]

>  <Growth Rate>
0

$$$$
>  <Compound>
COc1cc(C(=O)NS(=O)(=O)c2ccccc2C)ccc1Cc1cn(C)c2ccc(NC(=O)OC3CCCC3)cc12

>  <Growth Rate>
1

$$$$
>  <Compound>
CC1CCN(CC[C@H]2CCCN2S(=O)(=O)c2cccc(O)c2)CC1.Cl

>  <Growth Rate>
1

$$$$
>  <Compound>
O=C(NCc1ncc(C(F)(F)F)cc1Cl)c1ccc2c(c1)C1(CCS(=O)(=O)CC1)[C@@H](C1CC1)N2S(=O)(=O)c1ccc(F)cc1

>  <Growth Rate>
0

$$$$
>  <Compound>
COc1cc2c(cc1NS(=O)(=O)c1ccc(Br)cc1C)n(C)c(=O)n2C

>  <Growth Rate>
0

$$$$
>  <Compound>
CC(C)N(CCCNC(=O)Nc1ccc(C(C)(C)C)cc1)C[C@H]1O[C@@H](n2cc(Br)c3c(N)ncnc32)[C@H](O)[C@@H]1O

>  <Growth Rate>
1

$$$$

====

Catalogue of Population Membrane Permeable-Phenotype (%) readings, one per entry.
Tested on: HEK-293T
Experiment: Multiplex assay against HEK293T
Type: toxicity, cell-based
Conditions: human, 12 h, 10 µM, compound concentration 10 uM, replicate 1
Parameter: Population Membrane Permeable-Phenotype (%)

>  <Compound>
C[C@]12CC[C@@H]3c4ccc(O)cc4CC[C@H]3[C@@H]1CC[C@@H]2O

>  <Recorded Number>
0

$$$$
>  <Compound>
Cc1ccc2c(c1)c1c(n2CCc2ccc(C)nc2)CCN(C)C1 [LATREPIRDINE]

>  <Recorded Number>
8

$$$$
>  <Compound>
COc1cc(Nc2nccc(-c3cnn4nc(OC)ccc34)n2)cc(C(F)(F)F)c1

>  <Recorded Number>
7

$$$$
>  <Compound>
O=c1cc(N2CCOCC2)oc2c(-c3cccc4c3sc3ccccc34)cccc12

>  <Recorded Number>
8

$$$$

====

System: Fibroblast
Assay: Multiplex assay against human fibroblast
Format: toxicity, cell-based
Conditions: 48 h, 1 µM, compound concentration 1 uM, replicate 1
Parameter Population Fragmented Nuclei (%): see the listing below.
Parameter: Population Fragmented Nuclei (%)

>  <Molecule>
CC(C)(C)NC[C@H](O)COc1nsnc1N1CCOCC1

>  <Recorded Number>
29

$$$$
>  <Molecule>
COC(=O)C1=C(C)NC(C)=C(C(=O)OCCCN2CCC(c3ccccc3)(c3ccccc3)CC2)[C@H]1c1cccc([N+](=O)[O-])c1

>  <Recorded Number>
47

$$$$
>  <Molecule>
CC(C)OC(=O)N1CCC(Oc2ncnc3c2cnn3-c2ccc(S(C)(=O)=O)cc2F)CC1

>  <Recorded Number>
35

$$$$
>  <Molecule>
CCc1nn(CCCN2CCN(c3cccc(Cl)c3)CC2)c(=O)n1CCOc1ccccc1.Cl [NEFAZODONE HYDROCHLORIDE]

>  <Recorded Number>
30

$$$$
>  <Molecule>
COc1ccc(-c2ccc3ncc4c(c3c2)n(-c2ccc(N3CCNCC3)c(C(F)(F)F)c2)c(=O)n4C)cn1.O=C(O)/C=C\C(=O)O

>  <Recorded Number>
55

$$$$
>  <Molecule>
CN1CCN(Cc2ccc(Nc3ncc(Cl)c(Nc4ccccc4S(=O)(=O)N(C)C)n3)cc2)CC1

>  <Recorded Number>
39

$$$$
>  <Molecule>
C[C@]12CC[C@@H]3c4ccc(O)cc4CC[C@H]3[C@@H]1CC[C@@H]2O

>  <Recorded Number>
42

$$$$
>  <Molecule>
Cc1ccc(C)c(Oc2ccncc2C(=O)N2CCN(C3CC3)c3ccccc32)c1

>  <Recorded Number>
23

$$$$
>  <Molecule>
Cc1c[nH]c2nccc(Oc3c(F)cc(Nc4cc(Cl)nc(N)n4)cc3F)c12

>  <Recorded Number>
41

$$$$
>  <Molecule>
O=c1cc(N2CCOCC2)oc2c(-c3cccc4c3sc3ccccc34)cccc12

>  <Recorded Number>
33

$$$$
>  <Molecule>
COc1ccccc1CN[C@H]1C2CCN(CC2)[C@H]1C(c1ccccc1)c1ccccc1

>  <Recorded Number>
30

$$$$
>  <Molecule>
CC(C)c1noc(N2CCC(COc3ccc(-c4ccc(S(C)(=O)=O)cc4)nc3)CC2)n1

>  <Recorded Number>
29

$$$$
>  <Molecule>
Cl.O=C(O)c1cc(-c2ccc(C3CCNCC3)cc2)c2ccc(-c3ccc(C(F)(F)F)cc3)cc2c1

>  <Recorded Number>
30

$$$$

====

Test system: U2OS
Test: Multiplex assay against U2OS
Assay type: toxicity, cell-based
Settings: human, 12 h, 1 µM, compound concentration 1 uM, replicate 1
Measured Population Fragmented Nuclei (%), listed per entry.

>  <Entry Smiles>
Cl.O=C(O)c1cc(-c2ccc(C3CCNCC3)cc2)c2ccc(-c3ccc(C(F)(F)F)cc3)cc2c1

>  <Measurement Units>
%

>  <Population Fragmented Nuclei (%)>
16

$$$$
>  <Entry Smiles>
CC(C)NC(=O)N1CC[C@H](NC2=Nc3cc(F)ccc3N(CC(F)F)c3ccc(Cl)cc32)C1

>  <Measurement Units>
%

>  <Population Fragmented Nuclei (%)>
11

$$$$
>  <Entry Smiles>
CN1CCN(Cc2ccc(Nc3ncc(Cl)c(Nc4ccccc4S(=O)(=O)N(C)C)n3)cc2)CC1

>  <Measurement Units>
%

>  <Population Fragmented Nuclei (%)>
20

$$$$
